Measured values drawn from PubChem BioAssay (NCI) for this set.

tested on: M14 melanoma; assay: NCI-60 one-dose screen, 48 h (100 = growth as untreated, 0 = no growth, -100 = all killed); details: 10 µM unless noted
The panel holds about 83,000 compounds, 20% with a hit somewhere; the sample as a whole holds those more often.
// reported growth per item
metric-name: growth (%)

- C=CCn1c(SCC(=O)Nc2ccc(C(=O)/C=C/c3cc4cc(OC)ccc4nc3Cl)cc2)nnc1-c1ccc(Br)cc1: 90.1
- C=C(C)[C@@H]1CC[C@]2(C)[C@H](CC=C3[C@@H]4[C@H](C)[C@@H](C)CC[C@]4(CO)CC[C@]32C)[C@@]1(C)CCCN: -46.2
- Cc1cc(Cl)ccc1Nc1nc(C(F)(F)F)ccc1C(=O)N/N=C/c1ccc([N+](=O)[O-])cc1: 26.9
- N#Cc1c(-c2ccc(Cl)cc2)nc(SCC(=O)NC2=NN=C(c3ccccc3)CS2)[nH]c1=O: 72.3
- O=C(CCCCC1CCSS1)Nc1ncnc2n[nH]c(-c3ccc(Oc4ccccc4)cc3)c12 (centres undefined): -62.8
- COc1cc(OC)c2sc(-c3ccc(-n4cncc4-c4ccc(OC)c(OC)c4)cc3)nc2c1: 67.6
- O=Nc1c(-c2c(O)[nH]c3ncccc23)[nH]c2ccccc12: 56.4
- O=C(CSc1nc(-c2ccccc2)[nH]c1S(=O)(=O)c1ccccc1)NC1CC1: 96.4
- Cc1ccc(-c2nc3nc(-c4ccccc4)nc(N4CCNCC4)c3o2)cc1: -84.7
